Field: AUC. Provide a value for each of the molecules that follow.
ASSAY PROCEDURE: AUC in mouse at 10 mg/kg, po
Assay type: ADME, organism-based
EXPERIMENTAL CONDITIONS: in vivo
Enter your answer as a number in ng·h/mL; do not include the unit.

Input Cc1ncccc1N1C(=O)c2c(Cl)ccc(NS(=O)(=O)c3ccc(C(C)(C)C)cc3)c2C1=O . Output AUC: 46800

Input Cc1c(N2C(=O)c3c(Cl)ccc(NS(=O)(=O)c4ccc(C(C)(C)C)cc4)c3C2=O)ccc[n+]1[O-] . Output AUC: 16200

Input COc1ncccc1N1C(=O)c2c(Cl)ccc(NS(=O)(=O)c3ccc(C(C)(C)C)cc3)c2C1=O . Output AUC: 24000

Input CC(C)(C)c1ccc(S(=O)(=O)Nc2ccc(Cl)cc2C(=O)c2cc[n+]([O-])cc2)cc1 [VERCIRNON] . Output AUC: 340

Input Cc1cccc(N2C(=O)c3c(Cl)ccc(NS(=O)(=O)c4ccc(C(C)(C)C)cc4)c3C2=O)n1 . Output AUC: 67900

Input COc1ccncc1N1C(=O)c2c(Cl)ccc(NS(=O)(=O)c3ccc(C(C)(C)C)cc3)c2C1=O . Output AUC: 35600

Input CC(C)(C)c1ccc(S(=O)(=O)Nc2ccc(Cl)c3c2C(=O)N(Cc2cccc[n+]2[O-])C3=O)cc1 . Output AUC: 36000

Input CC(C)(C)c1ccc(S(=O)(=O)Nc2ccc(Cl)c3c2C(=O)N(Cc2ccc[n+]([O-])c2)C3=O)cc1 . Output AUC: 13900

---

ASSAY PROCEDURE: Elimination half life in mouse at 1 mg/kg, iv
Assay type: ADME, organism-based
EXPERIMENTAL CONDITIONS: in vivo, read-out: beta t1/2 (converted)
Field: log10 half-life. Provide a value for each of the molecules that follow.
Please be aware that the numbers have been log10-transformed from half-life in h.

Input Cc1c(N2C(=O)c3c(Cl)ccc(NS(=O)(=O)c4ccc(C(C)(C)C)cc4)c3C2=O)ccc[n+]1[O-] . Output log10 half-life: 0.11

Input Cc1ncccc1N1C(=O)c2c(Cl)ccc(NS(=O)(=O)c3ccc(C(C)(C)C)cc3)c2C1=O . Output log10 half-life: 0.51

Input Cc1cccc(N2C(=O)c3c(Cl)ccc(NS(=O)(=O)c4ccc(C(C)(C)C)cc4)c3C2=O)n1 . Output log10 half-life: 0.12

Input CC(C)(C)c1ccc(S(=O)(=O)Nc2ccc(Cl)c3c2C(=O)N(Cc2cccc[n+]2[O-])C3=O)cc1 . Output log10 half-life: 0.02

Input CC(C)(C)c1ccc(S(=O)(=O)Nc2ccc(Cl)c3c2C(=O)N(Cc2ccc[n+]([O-])c2)C3=O)cc1 . Output log10 half-life: -0.21

Input COc1ccncc1N1C(=O)c2c(Cl)ccc(NS(=O)(=O)c3ccc(C(C)(C)C)cc3)c2C1=O . Output log10 half-life: 0.01

Input CC(C)(C)c1ccc(S(=O)(=O)Nc2ccc(Cl)cc2C(=O)c2cc[n+]([O-])cc2)cc1 [VERCIRNON] . Output log10 half-life: -0.80

Input COc1ncccc1N1C(=O)c2c(Cl)ccc(NS(=O)(=O)c3ccc(C(C)(C)C)cc3)c2C1=O . Output log10 half-life: 0.73

---

Test system: Liver microsome
ASSAY PROCEDURE: Metabolic stability of compound in human liver microsomes assessed as remaining compound at 37 deg C
Assay type: ADME
Given measured Stability, output Y if it is greater than or equal to 70% and N if not.

Ask: Quick check, Stability >= 70%? COc1ccncc1N1C(=O)c2c(Cl)ccc(NS(=O)(=O)c3ccc(C(C)(C)C)cc3)c2C1=O
Reply: Y

Ask: Quick check, Stability >= 70%? CC(C)(C)c1ccc(S(=O)(=O)Nc2ccc(Cl)c3c2C(=O)N(Cc2cccc[n+]2[O-])C3=O)cc1
Reply: Y

Ask: Quick check, Stability >= 70%? CC(C)(C)c1ccc(S(=O)(=O)Nc2ccc(Cl)c3c2C(=O)N(Cc2ccc[n+]([O-])c2)C3=O)cc1
Reply: N

Ask: Quick check, Stability >= 70%? COc1ncccc1N1C(=O)c2c(Cl)ccc(NS(=O)(=O)c3ccc(C(C)(C)C)cc3)c2C1=O
Reply: N

Ask: Quick check, Stability >= 70%? Cc1ncccc1N1C(=O)c2c(Cl)ccc(NS(=O)(=O)c3ccc(C(C)(C)C)cc3)c2C1=O
Reply: Y

Ask: Quick check, Stability >= 70%? Cc1cccc(N2C(=O)c3c(Cl)ccc(NS(=O)(=O)c4ccc(C(C)(C)C)cc4)c3C2=O)n1
Reply: N

Ask: Quick check, Stability >= 70%? CC(C)(C)c1ccc(S(=O)(=O)Nc2ccc(Cl)cc2C(=O)c2cc[n+]([O-])cc2)cc1
Reply: Y
